- study_target: PDGF-BB (Homo sapiens, UniProt P01127 P01127:82-190)
- Sequence (P01127 82-190, one chain of several): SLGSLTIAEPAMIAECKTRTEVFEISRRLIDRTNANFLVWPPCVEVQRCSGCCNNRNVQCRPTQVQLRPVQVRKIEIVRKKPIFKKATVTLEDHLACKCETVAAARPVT
- test_summary: filter; 37 C, PBSM + 0.01% HSA; high affinity component
- particulars: tags: R&D Systems, E. coli; chain copies: 2; label: 5'-32P; three-way helix junction
pKd: −log10 of the molar value.

{"binder": "TGGGAGGGCGCGTTCTTCGTGGTTACTTTTAGTCCCG (ssDNA, 3'-3' inverted T) [20t]", "pKd": 9.90}
